Measured inhibition at 100 µM of individual entries
Target: hMAO-B (Homo sapiens)
Construct: purchased Sigma-Aldrich (Steinheim, Germany)
Sequence (P27338 whole entry): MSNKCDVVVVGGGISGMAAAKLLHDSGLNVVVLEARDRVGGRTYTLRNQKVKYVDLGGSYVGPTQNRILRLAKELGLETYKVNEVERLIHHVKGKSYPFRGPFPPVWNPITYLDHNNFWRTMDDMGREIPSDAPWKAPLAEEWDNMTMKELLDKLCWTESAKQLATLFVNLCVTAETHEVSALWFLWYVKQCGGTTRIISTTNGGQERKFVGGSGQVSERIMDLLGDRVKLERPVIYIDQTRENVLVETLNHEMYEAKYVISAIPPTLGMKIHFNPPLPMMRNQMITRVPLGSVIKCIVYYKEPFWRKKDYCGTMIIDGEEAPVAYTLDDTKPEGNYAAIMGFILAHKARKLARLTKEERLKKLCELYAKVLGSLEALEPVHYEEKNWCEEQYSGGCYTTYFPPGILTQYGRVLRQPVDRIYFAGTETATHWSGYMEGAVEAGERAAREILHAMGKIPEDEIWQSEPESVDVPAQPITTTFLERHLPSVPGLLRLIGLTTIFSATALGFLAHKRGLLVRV
Experiment: biochemical
Details: 10^−4 M; read-out: MAO-B % Inhibition
# number only, unit % dropped from output

{"Sample Smiles": "COc1ccc(-c2csc(NN=Cc3ccc(N4CCN(c5ccc(F)cc5)CC4)cc3)n2)cc1", "Assayed Target": "hMAO-B (Homo sapiens)", "inhibition at 100 µM, %": 70.3}
{"Sample Smiles": "Fc1ccc(N2CCN(c3ccc(C=NNc4nc(-c5ccc(Br)cc5)cs4)cc3)CC2)cc1", "Assayed Target": "hMAO-B (Homo sapiens)", "inhibition at 100 µM, %": 39.1}

Task item: Entry under review: Cc1ccc(-c2csc(NN=Cc3ccc(N4CCN(c5ccc(F)cc5)CC4)cc3)n2)c(C)c1 . Reported inhibition at 100 µM?
Reply: 40.8

Task item: Another compound to look at: O=[N+]([O-])c1ccc(-c2csc(NN=Cc3ccc(N4CCN(c5ccc(F)cc5)CC4)cc3)n2)cc1
Reply: 65.2

----------
Molecular target: AChE (Homo sapiens)
Assay: biochemical
Settings: 10^−3 M
Classes (inhibition at 1000 µM): c1: < 70%; c2: ≥ 70% and < 80%; c3: ≥ 80%

These recorded examples may help you get a feel for the data.
{"Sample Smiles": "O=[N+]([O-])c1ccc(-c2csc(NN=Cc3ccc(N4CCN(c5ccc(F)cc5)CC4)cc3)n2)cc1", "Assigned Class": "c2"}
{"Sample Smiles": "Fc1ccc(N2CCN(c3ccc(C=NNc4nc(-c5ccc(Br)cc5)cs4)cc3)CC2)cc1", "Assigned Class": "c2"}
{"Sample Smiles": "Fc1ccc(N2CCN(c3ccc(C=NNc4nc(-c5ccc(Cl)cc5)cs4)cc3)CC2)cc1", "Assigned Class": "c1"}
{"Sample Smiles": "COc1ccc(-c2csc(NN=Cc3ccc(N4CCN(c5ccc(F)cc5)CC4)cc3)n2)cc1", "Assigned Class": "c3"}
{"Sample Smiles": "Fc1ccc(N2CCN(c3ccc(C=NNc4nc(-c5ccccc5)cs4)cc3)CC2)cc1", "Assigned Class": "c3"}

Task item: State the class of the compound shown: Fc1ccc(N2CCN(c3ccc(C=NNc4nc(-c5ccc(Cl)cc5Cl)cs4)cc3)CC2)cc1
Reply: c1

Task item: Another compound to look at: Cc1ccc(-c2csc(NN=Cc3ccc(N4CCN(c5ccc(F)cc5)CC4)cc3)n2)c(C)c1
Reply: c1

Task item: Another compound to look at: Cc1ccc(-c2csc(NN=Cc3ccc(N4CCN(c5ccc(F)cc5)CC4)cc3)n2)cc1
Reply: c2

----------
Molecular target: AChE (Homo sapiens, UniProt P22303)
Sequence (P22303 32-614): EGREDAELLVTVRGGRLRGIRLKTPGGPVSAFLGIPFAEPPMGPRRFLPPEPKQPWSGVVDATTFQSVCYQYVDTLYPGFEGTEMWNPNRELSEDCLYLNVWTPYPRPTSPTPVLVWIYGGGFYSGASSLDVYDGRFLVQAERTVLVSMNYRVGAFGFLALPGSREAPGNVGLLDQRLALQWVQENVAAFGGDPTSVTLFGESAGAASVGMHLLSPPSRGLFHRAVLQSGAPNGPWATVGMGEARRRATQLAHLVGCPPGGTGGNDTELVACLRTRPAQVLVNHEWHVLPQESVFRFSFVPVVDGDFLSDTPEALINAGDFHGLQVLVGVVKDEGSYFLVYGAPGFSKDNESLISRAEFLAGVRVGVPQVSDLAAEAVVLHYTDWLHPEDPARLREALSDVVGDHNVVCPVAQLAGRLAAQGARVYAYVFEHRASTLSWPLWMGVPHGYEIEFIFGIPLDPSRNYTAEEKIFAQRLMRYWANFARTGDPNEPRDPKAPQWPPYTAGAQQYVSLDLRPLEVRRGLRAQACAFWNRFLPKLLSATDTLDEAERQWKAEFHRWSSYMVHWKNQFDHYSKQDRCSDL
Assay: biochemical
Conditions: 10^−3 M
Measured inhibition at 1000 µM of individual entries
# number only, unit % dropped from output

Recorded inhibition at 1000 µM, per entry:
{"Sample Smiles": "Fc1ccc(N2CCN(c3ccc(C=NNc4nc(-c5ccc(C(F)(F)F)cc5)cs4)cc3)CC2)cc1", "Assayed Target": "AChE (Homo sapiens, UniProt P22303)", "Value": 80.7}
{"Sample Smiles": "Fc1ccc(-c2csc(NN=Cc3ccc(N4CCN(c5ccc(F)cc5)CC4)cc3)n2)cc1", "Assayed Target": "AChE (Homo sapiens, UniProt P22303)", "Value": 78.4}

Here is another compound to look at.
Task item: Entry under review: N#Cc1ccc(-c2csc(NN=Cc3ccc(N4CCN(c5ccc(F)cc5)CC4)cc3)n2)cc1 . Reported inhibition at 1000 µM?
Reply: 71.2
